Provide the reported IC50 of each item.
# system_name: JAK3 (Homo sapiens (Human))
# Sequence (P52333 whole entry): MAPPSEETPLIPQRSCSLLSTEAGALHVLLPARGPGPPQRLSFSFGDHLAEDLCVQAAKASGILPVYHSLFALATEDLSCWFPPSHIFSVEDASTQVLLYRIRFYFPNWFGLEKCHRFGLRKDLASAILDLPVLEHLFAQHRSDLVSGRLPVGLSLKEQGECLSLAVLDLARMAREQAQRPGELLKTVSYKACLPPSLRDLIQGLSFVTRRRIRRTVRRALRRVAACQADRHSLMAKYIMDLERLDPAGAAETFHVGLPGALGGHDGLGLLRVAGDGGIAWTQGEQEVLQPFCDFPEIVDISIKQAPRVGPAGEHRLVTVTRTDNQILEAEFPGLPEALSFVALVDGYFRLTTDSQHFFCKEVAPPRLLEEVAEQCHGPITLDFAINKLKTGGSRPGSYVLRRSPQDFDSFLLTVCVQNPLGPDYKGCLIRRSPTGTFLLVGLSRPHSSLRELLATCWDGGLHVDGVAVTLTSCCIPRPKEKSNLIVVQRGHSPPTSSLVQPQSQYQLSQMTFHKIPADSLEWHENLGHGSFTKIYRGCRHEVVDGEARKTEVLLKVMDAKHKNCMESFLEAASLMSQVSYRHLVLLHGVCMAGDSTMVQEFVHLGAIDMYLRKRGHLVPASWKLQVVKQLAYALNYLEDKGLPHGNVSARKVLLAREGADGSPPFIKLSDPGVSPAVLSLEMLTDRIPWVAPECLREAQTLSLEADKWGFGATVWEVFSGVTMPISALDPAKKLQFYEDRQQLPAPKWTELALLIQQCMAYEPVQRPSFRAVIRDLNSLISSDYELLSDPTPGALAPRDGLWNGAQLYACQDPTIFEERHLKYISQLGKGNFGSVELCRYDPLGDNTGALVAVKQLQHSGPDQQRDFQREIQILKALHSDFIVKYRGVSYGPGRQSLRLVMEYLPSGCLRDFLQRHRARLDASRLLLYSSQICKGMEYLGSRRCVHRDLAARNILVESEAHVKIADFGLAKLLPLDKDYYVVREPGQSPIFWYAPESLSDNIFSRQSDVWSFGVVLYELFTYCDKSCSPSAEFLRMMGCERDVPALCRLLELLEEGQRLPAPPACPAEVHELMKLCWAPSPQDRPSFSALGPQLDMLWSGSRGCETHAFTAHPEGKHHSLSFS
# protocol_text: JAK3 LANCE Ultra kinase assay
# Format: biochemical
# details: 4 uM ATP
Give a bare numeral; the unit nM is implied.

What measured IC50 goes with "CN(c1c(C#N)cnc2[nH]ccc12)[C@H]1C[C@@H](NS(=O)(=O)c2cccc(C(F)(F)F)c2)C1" ?
156

// IC50 lookup, key: "N#Cc1cnc2[nH]ccc2c1N[C@H]1C[C@@H]2CN(C(=O)Nc3nc(C4CC4)ns3)C[C@@H]2C1"
178

Which IC50 value belongs to "CN(c1c(C#N)cnc2[nH]ccc12)[C@H]1C[C@@H]2CN(S(=O)(=O)c3cccc(C(F)(F)F)c3)C[C@@H]2C1" ?
28

Quick one: IC50 for O=C(NCC(F)(F)F)N1C[C@H](Nc2c(C(F)(F)F)cnc3[nH]ccc23)[C@H](C2CC2)C1 (relative stereo) ?
96

Could you share which IC50 value was measured for CC[C@@H]1CN(C(=O)NCC(C)(F)F)C[C@@H]1Nc1c(C#N)cnc2[nH]ccc12 (relative stereo) ?
241

Could you tell me which IC50 is on file for "CN(c1c(C#N)cnc2[nH]ccc12)[C@H]1C[C@@H]2CN(C(=O)Nc3nc(OCC(C)(C)N)ns3)C[C@@H]2C1" ?
80

Please report the recorded IC50 for CCC1CN(C(=O)NCC(F)F)CC1Nc1c(C#N)cnc2[nH]ccc12 (stereo not drawn) .
73

Item "CN(c1c(C#N)cnc2[nH]ccc12)[C@H]1C[C@@H]2CN(C(=O)Nc3nc(OCC(C)(C)O)ns3)C[C@@H]2C1" has what recorded IC50?
77

Item "C[C@H](O)C(=O)N1C[C@H]2C[C@H](N(C)c3c(C#N)cnc4[nH]ccc34)C[C@H]2C1" has what recorded IC50?
533

Item under review: CC[C@@H]1CN(C(=O)CC(F)(F)F)C[C@@H]1N(C)c1c(C#N)cnc2[nH]ccc12 (relative stereo) . Reported IC50?
133

Need IC50 of CC[C@@H]1CC(NC(=O)CCC(F)(F)F)C[C@@H]1Nc1c(C#N)cnc2[nH]ccc12 (stereo in doubt) , thanks.
39.6

What value of IC50 has been reported for the following compound? CN(c1c(C#N)cnc2[nH]ccc12)[C@H]1C[C@@H](NS(=O)(=O)CCC(F)(F)F)C1 [Compound H10]
143

Please look up its IC50: CN(c1c(C#N)cnc2[nH]ccc12)[C@H]1CC[C@H](CS(=O)(=O)N2CCC(C)(O)C2)CC1 (stereo partly drawn)
40

Consider the compound "CC[C@@H]1CN(C(=O)Nc2nc(OC)ns2)C[C@@H]1Nc1c(C#N)cnc2[nH]ccc12" and give its measured IC50.
152

Find the recorded IC50 belonging to CC[C@@H]1CN(C(=O)NCC(C)C)C[C@@H]1Nc1c(C#N)cnc2[nH]ccc12 (relative stereo) and report it.
59

Which IC50 value is on record for N#Cc1cn2c(n1)CC(Nc1c(C#N)cnc3[nH]ccc13)CC2 (stereo not drawn) ?
68

What value of IC50 has been recorded for this entry: COCC1CCN(S(=O)(=O)C[C@H]2CC[C@H](N(C)c3c(C#N)cnc4[nH]ccc34)CC2)C1 (stereo partly drawn)
386

Which value of IC50 has been reported for "COc1nsc(NC(=O)N[C@H]2C[C@@H](N(C)c3c(C#N)cnc4[nH]ccc34)C2)n1" in the records?
60

###

# Test system: Sprague-Dawley (SD) mice
# protocol_text: Concanavalin-induced paw swelling in mice
# Format: in vivo
# details: 10 mg/kg intragastric, 6 h
Give measured Paw swelling rate_6 h (%) for each item. Keep answers brief.
Give the number; % is assumed, so skip it.

Recorded Paw swelling rate_6 h (%) of "CN(c1c(C#N)cnc2[nH]ccc12)[C@H]1C[C@@H]2CN(C(=O)Nc3ccc(Cl)c(C(F)(F)F)c3)C[C@@H]2C1" , please.
24.50

Name the reported Paw swelling rate_6 h (%) value associated with the compound CC[C@@H]1CN(C(=O)NCC(F)(F)F)CC1Nc1c(C#N)cnc2[nH]ccc12 (stereo partly shown)
30.20

// returns reported Paw swelling rate_6 h (%) for input "CN(C)c1nsc(NC(=O)N2C[C@H]3C[C@H](N(C)c4c(C#N)cnc5[nH]ccc45)C[C@H]3C2)n1"
30.10

I am curious: what Paw swelling rate_6 h (%) value has been reported for COc1ccc2c(c1)c(CC(=O)O)c(C)n2C(=O)c1ccc(Cl)cc1 [Indomethacin, reference compound] ?
36.20

Recorded Paw swelling rate_6 h (%) of "CCCS(=O)(=O)N[C@H]1C[C@@H](N(C)c2c(C#N)cnc3[nH]ccc23)C1" , please.
25.10

Please give the measured Paw swelling rate_6 h (%) for this compound: "CC(C)c1nsc(NC(=O)N2C[C@H]3C[C@H](N(C)c4c(C#N)cnc5[nH]ccc45)C[C@H]3C2)n1"
24.50

I would be grateful if you could share the reported Paw swelling rate_6 h (%) for "COc1nsc(NC(=O)N2C[C@H]3C[C@H](N(C)c4c(C#N)cnc5[nH]ccc45)C[C@H]3C2)n1" .
21.30

Name the recorded Paw swelling rate_6 h (%) for "C[C@@H]1CCN(C(=O)CC#N)C[C@@H]1N(C)c1c(C#N)cnc2[nH]ccc12" .
32.00

Recorded Paw swelling rate_6 h (%) of "COc1nsc(NC(=O)N[C@H]2C[C@@H](N(C)c3c(C#N)cnc4[nH]ccc34)C2)n1" , please.
29.20

What Paw swelling rate_6 h (%) value was documented for this compound, "CN(c1c(C#N)cnc2[nH]ccc12)[C@H]1C[C@@H](NS(=O)(=O)CCC(F)(F)F)C1" ?
31.00

###

I'd be grateful if you could share measured JAK2/JAK1 for these entries.
# system_name: JAK1 (Homo sapiens (Human), UniProt P23458)
# Sequence (P23458 whole entry): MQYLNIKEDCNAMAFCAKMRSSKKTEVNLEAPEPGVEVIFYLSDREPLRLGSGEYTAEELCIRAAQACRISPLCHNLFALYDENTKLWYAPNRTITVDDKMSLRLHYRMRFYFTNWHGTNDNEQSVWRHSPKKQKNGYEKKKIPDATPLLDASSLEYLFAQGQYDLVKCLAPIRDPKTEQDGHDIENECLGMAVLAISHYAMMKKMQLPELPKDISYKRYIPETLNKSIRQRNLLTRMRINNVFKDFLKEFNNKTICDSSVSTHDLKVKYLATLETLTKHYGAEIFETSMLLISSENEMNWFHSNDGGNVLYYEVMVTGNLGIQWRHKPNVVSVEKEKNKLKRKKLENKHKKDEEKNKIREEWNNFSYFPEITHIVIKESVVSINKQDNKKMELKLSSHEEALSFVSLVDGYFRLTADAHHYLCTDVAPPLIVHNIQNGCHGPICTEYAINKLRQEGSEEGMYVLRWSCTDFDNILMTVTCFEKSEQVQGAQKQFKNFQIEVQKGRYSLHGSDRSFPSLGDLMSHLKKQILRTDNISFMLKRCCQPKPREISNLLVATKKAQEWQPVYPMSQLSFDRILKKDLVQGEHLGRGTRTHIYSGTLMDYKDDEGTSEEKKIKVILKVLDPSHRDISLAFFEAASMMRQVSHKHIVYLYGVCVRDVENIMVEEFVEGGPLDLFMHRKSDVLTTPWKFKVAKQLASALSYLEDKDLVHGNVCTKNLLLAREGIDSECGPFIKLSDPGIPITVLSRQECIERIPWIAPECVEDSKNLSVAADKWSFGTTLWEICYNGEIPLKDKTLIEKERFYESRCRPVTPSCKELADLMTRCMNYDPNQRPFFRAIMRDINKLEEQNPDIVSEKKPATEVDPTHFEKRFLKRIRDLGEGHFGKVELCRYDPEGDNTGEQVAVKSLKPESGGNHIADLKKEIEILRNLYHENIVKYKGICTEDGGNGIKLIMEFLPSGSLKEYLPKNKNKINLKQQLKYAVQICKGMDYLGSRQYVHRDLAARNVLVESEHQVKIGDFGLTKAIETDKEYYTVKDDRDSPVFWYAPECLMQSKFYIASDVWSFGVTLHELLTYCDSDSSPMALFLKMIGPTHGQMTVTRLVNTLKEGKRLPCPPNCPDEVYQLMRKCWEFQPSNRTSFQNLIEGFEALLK
# protocol_text: JAK1 LANCE Ultra kinase assay
# Assay type: biochemical
# details: ratio of IC50 JAK2 to IC50 JAK1
Quick one: just the number, no unit, thanks!

Request the reported JAK2/JAK1 associated with CC[C@@H]1CN(CCC#N)C[C@@H]1Nc1c(C#N)cnc2[nH]ccc12 (relative stereo)
9.19

What does the record list as JAK2/JAK1 for "CN(c1c(C#N)cnc2[nH]ccc12)[C@H]1C[C@@H]2CN(C(=O)Nc3nc(C(C)(C)C)ns3)C[C@@H]2C1" ?
15.40

If you can, please state the reported JAK2/JAK1 value of "COCc1nsc(NC(=O)N2C[C@H]3C[C@H](N(C)c4c(C#N)cnc5[nH]ccc45)C[C@H]3C2)n1" .
7.01

For the compound CCC1CN(C(=O)CC#N)CC1Nc1c(C#N)cnc2[nH]ccc12 (centres unmarked) , what JAK2/JAK1 is on record?
2.67

# lookup: JAK2/JAK1 of N#Cc1cn2c(n1)CC(Nc1c(C#N)cnc3[nH]ccc13)CC2 (centres unmarked)
7.51

Which value of JAK2/JAK1 has been reported for CC(C)[C@@H]1CN(C(=O)NCC(F)(F)F)C[C@@H]1Nc1c(C#N)cnc2[nH]ccc12 (relative stereo) in the records?
6.12

Quick one: JAK2/JAK1 for "N#Cc1cnc2[nH]ccc2c1N[C@H]1CN(C(=O)NCC(F)(F)F)CC12CC2" ?
2.82

What value of JAK2/JAK1 has been reported for the following compound? "CN(c1c(C#N)cnc2[nH]ccc12)[C@H]1C[C@@H](NS(=O)(=O)CCC(F)(F)F)C1"
7.03
